- experiment-notes: Viability qHTS for spleen associated tyrosine kinase inhibitor (SYKi) drug resistant MV4-11 cells (AID 1963824); further: nearly all actives have a fitted effect of over 35% in size
- assay-context: SYKi-resistant MV4-11 viability, CellTiter-Glo, 72 h; series mostly up to 45 µM
Results filed as inconclusive are left out. Active and inactive are the calls of the source. The call rests on the fitted dose curve; in most records, active means well fitted cell-killing curve with a large enough effect; inconclusive means small, poorly fitted or top-dose-only effect, or effect the other way; inactive means no such curve, though single readings can be large or run the other way.
Possible outcomes: TRUE for active, FALSE for inactive

molecule | label-class
O=C(Nc1nccs1)C(c1cc(F)ccc1O)N1Cc2ccccc2C1=O (stereo unspecified) | TRUE
c1ccc(-c2cnn3cc(-c4ccc(OCCN5CCOCC5)cc4)cnc23)cc1 | TRUE
CN1c2cc(O)c(N=NC(N)=O)cc2CC1S(=O)(=O)O (stereo unspecified) | FALSE
CCOC(=O)c1cc(=O)c2c(OCC(COc3cccc4oc(C(=O)OCC)cc(=O)c34)OC(=O)[C@@H](N)CCCCN)cccc2o1 | FALSE
CC(C)(C)c1[nH]cnc1/C=c1\[nH]c(=O)/c(=C/c2ccccc2)[nH]c1=O | TRUE
CC1CC[C@]2(C(=O)O)CC[C@]3(C(=O)O)C(=CCC4[C@@]5(C)CC[C@H](O[C@@H]6O[C@H](CO)[C@@H](O)[C@H](O)[C@H]6O)C(C)(C)C5CC[C@]43C)C2C1C (stereo partly specified) | FALSE
O=C(CCN1CCN(CCO)CC1)N1c2ccccc2Sc2ccc(C(F)(F)F)cc21 | FALSE
CC[C@H](NC(=O)[C@H](C)NC)C(=O)N1C[C@@H](O)C[C@H]1Cc1c(-c2[nH]c3cc(F)ccc3c2C[C@@H]2C[C@H](O)CN2C(=O)[C@H](CC)NC(=O)[C@H](C)NC)[nH]c2cc(F)ccc12 | TRUE
N[C@H](C(=O)O)c1ccc(O)cc1 | FALSE
CC(C)=CCC[C@](C)(O[C@@H]1O[C@H](CO[C@@H]2OC[C@H](O)[C@H](O)[C@H]2O)[C@@H](O)[C@H](O)[C@H]1O)[C@H]1CC[C@]2(C)[C@@H]1[C@H](O)C[C@@H]1[C@@]3(C)CC[C@H](O[C@@H]4O[C@H](CO)[C@@H](O)[C@H](O)[C@H]4O[C@@H]4O[C@H](CO)[C@@H](O)[C@H](O)[C@H]4O)C(C)(C)[C@@H]3CC[C@]12C | FALSE
COc1cc2c(cc1OC)CN(CCc1ccc(NC(=O)c3cc(OC)c(OC)cc3NC(=O)c3cnc4ccccc4c3)cc1)CC2 | FALSE
CCC1C(=O)N(C)c2cnc(Nc3ccc(C(=O)NC4CCC(N5CCN(CC6CC6)CC5)CC4)cc3OC)nc2N1C(C)C (stereo unspecified) | TRUE
CCN(CC)CCCS(=O)(=O)N[C@H](CCc1ccccc1)c1nc(Cc2ccc(Br)cc2)no1 | TRUE
O=c1cc(-c2ccccc2)oc2cc(O)cc(O)c12 | TRUE
CC(C)(C)c1ccc(C(=O)Nc2cc(Cl)c(Br)cc2C(=O)O)cc1 | TRUE
CN(C(=O)CNC(=O)/C=C/c1cccc(Cl)c1)C1CCS(=O)(=O)CC1 | TRUE

Just for reference, PubChem BioAssay (NCATS) is where these values come from.
